Experiment: JHH-DIPG-1 glioma cell viability, MIPE5.0 library, CellTiter-Glo luminescence, qHTS (AID 1347067);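 note: cells exposed to compound for 48 hours before readout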
Conditions: JHH-DIPG-1 glioma viability, CellTiter-Glo ATP luminescence
Results filed as inconclusive are left out. Active and inactive are the calls of the source. No cut-off is given here; in the data, nearly all actives have AC50 up to about 26 µM.
Classes used: class 1 = active, class 0 = inactive

| molecule | discreteLabel |
| --- | --- |
| CC(=O)O/N=C1/C(c2c(O)[nH]c3cc(Br)ccc23)=Nc2ccccc21 | class 1 |
| COc1ccc(F)c(F)c1C(=O)c1cnc(NC2CCN(S(C)(=O)=O)CC2)nc1N | class 1 |
| CCS(=O)(=O)c1cccc(-c2cc(C(=O)NC3CCN(C)CC3)c(C)c3[nH]c4ncc(C)cc4c23)c1 | class 1 |
| C[C@H]1CC2[C@@H]3CCC4=CC(=O)C=C[C@]4(C)[C@@]3(F)[C@@H](O)C[C@]2(C)[C@@]1(O)C(=O)CO (some centres not stated) | class 0 |
| COc1cc(/C=C(\C#N)C(=O)Nc2nnc(C(F)(F)F)s2)ccc1OCc1ccc(C(F)(F)F)cc1C(F)(F)F | class 1 |
| CN(C)C(=O)c1ccc(S(=O)(=O)c2ccc(NC(=O)[C@@](C)(O)C(F)(F)F)c(Cl)c2)cc1 | class 0 |
| Cc1c(-c2ccnn2C)cc(C(=O)NCc2ccc(S(C)(=O)=O)cn2)c(=O)n1-c1cccc(C(F)(F)F)c1 | class 0 |
